Data origin: patent US20050009797A1

# Assayed System: human androgen receptor (Homo sapiens)
# Construct: expressed in transfected cells; host or cells: HeLa cells
# Sequence (P10275 whole entry): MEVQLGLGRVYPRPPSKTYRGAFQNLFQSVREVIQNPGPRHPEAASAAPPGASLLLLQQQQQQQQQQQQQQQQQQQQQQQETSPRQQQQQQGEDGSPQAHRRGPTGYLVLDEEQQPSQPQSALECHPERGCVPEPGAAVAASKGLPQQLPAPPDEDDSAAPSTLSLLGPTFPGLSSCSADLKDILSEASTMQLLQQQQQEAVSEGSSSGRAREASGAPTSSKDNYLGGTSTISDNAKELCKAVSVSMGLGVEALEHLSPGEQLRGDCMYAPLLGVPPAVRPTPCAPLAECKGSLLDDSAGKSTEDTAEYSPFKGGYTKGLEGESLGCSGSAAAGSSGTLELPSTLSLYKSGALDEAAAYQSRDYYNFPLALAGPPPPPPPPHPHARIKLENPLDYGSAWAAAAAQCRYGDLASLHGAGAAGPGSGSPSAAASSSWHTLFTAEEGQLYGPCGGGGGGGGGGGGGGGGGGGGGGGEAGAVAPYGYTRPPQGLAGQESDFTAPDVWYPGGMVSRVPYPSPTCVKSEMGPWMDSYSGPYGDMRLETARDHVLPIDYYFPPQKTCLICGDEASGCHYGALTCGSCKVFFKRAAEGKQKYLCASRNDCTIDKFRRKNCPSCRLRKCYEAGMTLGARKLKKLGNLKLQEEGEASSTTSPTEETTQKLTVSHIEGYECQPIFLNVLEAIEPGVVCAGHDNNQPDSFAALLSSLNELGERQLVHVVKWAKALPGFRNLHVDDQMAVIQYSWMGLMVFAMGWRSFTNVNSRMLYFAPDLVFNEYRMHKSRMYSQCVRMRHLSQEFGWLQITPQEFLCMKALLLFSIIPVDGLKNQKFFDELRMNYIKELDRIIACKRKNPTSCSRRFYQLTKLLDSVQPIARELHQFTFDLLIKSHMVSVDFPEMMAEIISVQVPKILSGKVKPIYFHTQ
# Protocol Notes: Androgen receptor reporter gene assay, antagonistic effects (Example 26)
# Format: cell-based
Listed below: pIC50 values for each entry.
Reminder that pIC50 is minus the log10 of a molar concentration.

{"Molecule": "CC12CCC(=O)C=C1CC(CCCc1ccc(CCCCC(=O)O)cc1)C1C2CCC2(C)C1CCC2(C)O (centres unmarked) [Example 22]", "pIC50": 6.14}

Reported pIC50 ( C[C@]12CCC(=O)C=C1C[C@@H](CCCc1ccc(OCCCC(=O)O)cc1)[C@@H]1[C@@H]2CC[C@@]2(C)[C@H]1CC[C@]2(C)O [Example 18] ) = 6.18
